Assay explanation: soluble on expression in E. coli; label from the status in PepcDB or PDB records
Experimental endpoint: soluble on expression in E. coli

>  <Item sequence>
MGSDKIHHHHHHMIELDNIKICPLAGIDDAIIIQSLNKASLTTSTSAIGPAVAEMVTRHGAVLLRGFAPEGTSAMAALFASLQWKPLQYTYRSTPRTSVSEGIYTATEFPASEEIMLHSENAFQADWPTRIGFHCAVPARAGGETPIGSLEKITARIDTGLFDEFRRRGVSYVRNYSDYVDLPWQVVFQSSDRGDVEEYCKNHGIGFEWRNSGLRTWQACQGTATHPERGNEVWFNQAHMFHYTALGPEMASNLLSIFGEEELPRNAYYGDGGVIPKDAVEHIREAFSAERASFGWEKDDILLLDNMRYCHGRNPFEGPRQVLVSMGRGYASVVDSSH

>  <Experimental endpoint>
soluble on expression in E. coli

>  <Recorded value>
not soluble

$$$$
>  <Item sequence>
REFAPPPNLPDPKFESKAALLAARGPEELLCFTERLEDLVCFWEEAASAGVGPGQYSFSYQLEDEPWKLCRLHQAPTARGAVRFWCSLPTADTSSFVPLELRVTAASGAPRYHRVIHINEVVLLDAPVGLVARLADESGHVVLRWLPPPETPMTSHIRYEVDVSAGQGAGSVQRVEILEGRTECVLSNLRGRTRYTFAVRARMAEPSFGGFWSEWSEPVSLLTPSDLD

>  <Experimental endpoint>
soluble on expression in E. coli

>  <Recorded value>
soluble

$$$$
>  <Item sequence>
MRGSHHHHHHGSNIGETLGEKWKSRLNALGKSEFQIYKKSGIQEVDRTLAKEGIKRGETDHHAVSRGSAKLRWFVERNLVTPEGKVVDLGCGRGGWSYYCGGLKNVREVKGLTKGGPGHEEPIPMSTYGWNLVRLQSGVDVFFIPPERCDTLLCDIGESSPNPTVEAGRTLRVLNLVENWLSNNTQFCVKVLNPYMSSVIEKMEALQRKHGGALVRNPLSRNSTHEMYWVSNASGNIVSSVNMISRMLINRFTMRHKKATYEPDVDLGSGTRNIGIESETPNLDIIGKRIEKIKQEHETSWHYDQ

>  <Experimental endpoint>
soluble on expression in E. coli

>  <Recorded value>
soluble

$$$$
>  <Item sequence>
MDRINGLSDEIICHILSFLPTKESALTSVLSKRWRNLFALTPNLHLVDDDLEVGGCGQTLIDFVDRVLAVSSNLPIREFSIKC

>  <Experimental endpoint>
soluble on expression in E. coli

>  <Recorded value>
soluble

$$$$
>  <Item sequence>
EIILNASAMFNHSNAKLALSIDKKLRKVIVTPDMHRVHHSVMVKETHSNFGFFLSVWDRWFGTYRAQPALGHNDVVIGVPEIREASEQRLDKLLTQPFRYREGKGKNVD

>  <Experimental endpoint>
soluble on expression in E. coli

>  <Recorded value>
not soluble

$$$$
>  <Item sequence>
MIPIERHQKILALVAERGVVSIAELTERLGVSHMTIRRDVQKLEEQGAVLSVSGGVRSTQRLAIEPSHQDKTMMFSRQKQAIGTSAALHIPRNSCIYLDAGTTTLALARQLEDRDDLLVVTNDFVIANFLIESSQCRMIHSGGTLCRKNRSCIGEAAAHSLRNLSIDIAFISASCWGLRGISTPDEDKVPVKRAISEASSKRVLLADASKYGKVATYLALPLTAFDVVITDNSLSSTVYEELAEKALELIIASPPR

>  <Experimental endpoint>
soluble on expression in E. coli

>  <Recorded value>
not soluble

$$$$
>  <Item sequence>
MGEPKDSLALFLCHESESSLNEDDDETIERSDKQEPHFTTTIDDEDYVADLVLKENLRFETLPSKTTSSSDRLIAIDWILTTRTRFGFQHQTAYIAISYFDLFLHKRFIGLQKDETWAMRLLSVACLSLAAKMEERIVPGLSQYPQDHDFVFKPDVIRKTELLILSTLDWKMNLITPFHYFNYFLAKISQDNHSVSKDLVLLRSSDSLLALTKEISFTEYRQFVVAAVTTLLASSSTSSDIRLTREEIANKFGSISWWTSNENENVYLCYQRTLEIEERKHMTPPPEIAVSREPPASGSGAKRRLSFDDSDQSSPPAKRMRRL

>  <Experimental endpoint>
soluble on expression in E. coli

>  <Recorded value>
soluble

$$$$
>  <Item sequence>
MGSDKIHHHHHHMAIDLLNIARTGVLASQSQLGVTSNNIANANTVGYHRQVATQTTLDSQRLGSSFYGTGTYVSDVKRIYNDYAARELRIGQTTLSAAEASYGKLSELDQIFSQIGKVVPQSLTDLFAGLNSLADLPADLGIRSSTLNDAKQLANSLNQMQSTLNGQLNQTNDQITGMTKRINEISTELANLNLELMKSPNQDPILLDKQDALVQELSQYAQVNVIPLENGAKSIMLGGSIMLVSGEVAMSMSTATGDPFPNELQLMSSIGSQSVKADPSKLGGQLGALFEYRDQTLVPASLELDQLALGVADSFNKLQAQGFDLNGQVGANMFKDINDPLMSLGRVGGFTDNTGNATLGVNIDDTSALTGGSYELSFTAPSTYELRDTQRARLLRLP

>  <Experimental endpoint>
soluble on expression in E. coli

>  <Recorded value>
not soluble

$$$$

Param item = MAHHHHHHMTVKNAAKSGKYVWHAMPEEVRKSLKRGSVDETNGIKMGKKGTHATPSEPIYMEVPPDETQRKEKSPPRGMALPHVSTPNEKQPTPMPGETTNSGDVVVSQESGCVGVTHGTQSLSSSRTLKTKHVLHFRGPGWEKVLRKNKKGLESAFKKDVFEATGLEARRIEELKFEFASMLIVTFVVRRENDDEGTSKLHSDLQACAFPRTVLLYRN ; retrieve measured soluble on expression in E. coli.
soluble

Try MAHHHHHHMTRTKVKKVQMQMKARETVAPPSTACTTTRCLYTLTTFDVKSGGVKTSGEFPAGGGPKLPRDPLLHYFVKSLHGFLSTCLVVTSQRLVTFSANNNFFCIATVFPTLHTSPSVKNSKSLALRGKTENVVTERLGV next.
not soluble

MFDGEDLKKIFAMDGFLRNIEFEVSYISEGSIEIKVPLKENLMRVGDIMNGGAIMAISDAIGGLTVMTYGSVINQVTVNFNTEFIRPIGTGPVIFRSSMVRIGKNIAYVDVAAIDGNGQLCSKSMGTYYIYR ?
soluble

And for MEDIKSLLLQCPVLAGLPVEGINEAVQIVRARHFDEKALICSKGAQHSSLMVIAKGSVRVNSISSKGKEVTLMIFETGGWFGDNVFSPGMPRIFGATAHTDVTLLELPGDKFRQLLAKYPQSYPVILDLLSRRLWSAISVIEDDAIRGIEERIGRRLLLLAEYQHNRPISAQSCVVKVTREHIANMMGLTRQSVHKVLKKLENSNVLRLQYGSITILNPLKMEAYLKQLE ?
not soluble
